# EC50 per record follows
- Target Desc: Gastrin/cholecystokinin type B receptor (Rattus norvegicus)
- Sequence (P30553 whole entry): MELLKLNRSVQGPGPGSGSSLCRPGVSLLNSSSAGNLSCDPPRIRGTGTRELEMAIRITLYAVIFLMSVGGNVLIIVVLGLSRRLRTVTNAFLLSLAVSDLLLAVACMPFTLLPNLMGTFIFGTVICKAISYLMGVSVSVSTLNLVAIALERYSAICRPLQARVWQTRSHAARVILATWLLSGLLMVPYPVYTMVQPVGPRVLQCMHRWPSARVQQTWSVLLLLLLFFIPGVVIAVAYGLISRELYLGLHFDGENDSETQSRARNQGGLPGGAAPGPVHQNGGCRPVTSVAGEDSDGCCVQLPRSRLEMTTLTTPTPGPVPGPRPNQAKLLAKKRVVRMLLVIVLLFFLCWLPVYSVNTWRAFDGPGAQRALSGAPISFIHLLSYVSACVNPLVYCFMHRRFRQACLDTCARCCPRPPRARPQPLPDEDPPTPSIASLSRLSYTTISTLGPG
- Assay Comment: Effective concentration for the stimulation of Inositol Phosphate accumulation in CHO cells expressing wild-type Cholecystokinin type B receptor
- Format: functional, cell-based
- Condition Details: cho
Parameter: EC50 (nM)

>>> endpoint_value("C[C@]1(Cc2c[nH]c3ccccc23)NC(=O)CCCCCCCC[C@@H](C(=O)N[C@@H](CC(=O)O)C(=O)N[C@@H](Cc2ccccc2)C(N)=O)NC1=O")
4
>>> endpoint_value("C[C@]1(Cc2c[nH]c3ccccc23)NC(=O)CCCCSSCC[C@@H](C(=O)N[C@@H](CC(=O)O)C(=O)N[C@@H](Cc2ccccc2)C(N)=O)NC1=O")
7
